Values from paper PMC11035696

Test system: P-glycoprotein (Pgp)
assay summary: P-glycoprotein (Pgp) efflux assay
Assay type: in vitro ADME
condition details: mouse, not told; read-out: PgP Transport mouse apical efflux ratio
Let's look at some compounds and their measured efflux ratio.
The response must contain the number and no unit.

{"compound": "Cc1nnc(-c2ccc(OCCCOc3ccc(CCC(=O)O)c(F)c3)c(F)c2)s1 [Compound 1]", "readout value": 1.6}

Proceeding to the next compound to report its efflux ratio.
I am curious: what efflux ratio value has been reported for COc1ccc(Oc2ccc3ncn(CCOc4ccc(CCC(=O)O)cc4)c3c2)cc1 [Compound 2] ?
1.2

====

Record type: IC50 measurement. Applies to: CYP2C9 (Homo sapiens, UniProt P11712)

// query IC50 value for entry Cc1nnc(-c2ccc(OCCCOc3ccc(CCC(=O)O)c(F)c3)c(F)c2)s1 [Compound 1]
> 20 µM

For COc1ccc(Oc2ccc3ncn(CCOc4ccc(CCC(=O)O)cc4)c3c2)cc1 [Compound 2] then?
> 20 µM
